- Target: recombinant human DGAT1 (Homo sapiens, UniProt O75907)
- Construct: made in house; host or cells: Sf9 insect cells (baculovirus), used as a membrane preparation
- Sequence (O75907 whole entry): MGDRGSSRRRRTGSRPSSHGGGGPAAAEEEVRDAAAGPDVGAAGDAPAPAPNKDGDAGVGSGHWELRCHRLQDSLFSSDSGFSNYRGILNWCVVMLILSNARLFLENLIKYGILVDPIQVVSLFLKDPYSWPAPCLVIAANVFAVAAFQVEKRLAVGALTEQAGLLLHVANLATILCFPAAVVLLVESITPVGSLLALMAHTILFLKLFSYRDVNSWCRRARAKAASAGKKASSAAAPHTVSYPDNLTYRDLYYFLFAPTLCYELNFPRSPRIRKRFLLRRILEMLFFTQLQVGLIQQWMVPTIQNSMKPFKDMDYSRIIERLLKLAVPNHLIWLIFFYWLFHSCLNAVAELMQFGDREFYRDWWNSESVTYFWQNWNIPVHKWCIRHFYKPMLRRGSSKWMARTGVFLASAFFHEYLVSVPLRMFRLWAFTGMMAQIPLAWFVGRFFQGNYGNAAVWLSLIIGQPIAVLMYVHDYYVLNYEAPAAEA
- Protocol notes: DGAT1 enzyme assay (SPA, membranes from Sf9 insect cells)
- Format: biochemical
- Condition notes: 300 ng recombinant human DGAT1 membrane (Sf9), 25 μM 2-monooleoylglycerol, 25 μM [3H]-stearoyl-CoA, pH 7.4, 30 min, 25° C.; read-out: DGAT1 Enzyme Assay IC50 (inhibition)
Measured quantity: IC50 (µM)
The reply should be a number in µM, with the unit left off.

### Prompt Specify IC50 for `CC[C@H](NC(=O)c1cccn2c(-c3ccc(Nc4nc5ccc(Cl)cc5s4)cc3)nnc12)C(=O)O` and stop.
### Response 0.005

### Prompt Specify IC50 for `C[C@@H](NC(=O)c1cccn2c(-c3ccc(Nc4nccs4)cc3)nnc12)C(=O)O` and stop.
### Response 28

### Prompt Specify IC50 for `COC(=O)Nc1ccc(-c2nnc3c(C(=O)N4CCC[C@H]4C(=O)O)cccn23)cc1` and stop.
### Response 31

### Prompt Specify IC50 for `O=C(O)CNC(=O)c1cccn2c(-c3ccc(NC(=O)Nc4ccccc4OC(F)(F)F)cc3)nnc12` and stop.
### Response 0.17

### Prompt Specify IC50 for `O=C(O)CNC(=O)c1cccn2c(-c3ccc(Nc4nccs4)cc3)nnc12` and stop.
### Response 23

====

Record form. Attribute: pIC50. Fill in for each entry.
- Target: recombinant human DGAT1 (Homo sapiens, UniProt O75907)
- Protocol notes: DGAT1 enzyme assay (SPA, membranes from Sf9 insect cells)
- Condition notes: 300 ng recombinant human DGAT1 membrane (Sf9), 25 μM 2-monooleoylglycerol, 25 μM [3H]-stearoyl-CoA, pH 7.4, 30 min, 25° C.; read-out: DGAT1 Enzyme Assay IC50 (inhibition)
Formally, pIC50 is defined as -log10 of the concentration c, with c in mol/L.

### Prompt Specify pIC50 for `O=C(Nc1ccc(-c2nnc3c(C(=O)N[C@@H](Cc4ccccc4)C(=O)O)cccn23)cc1)Nc1ccccc1OC(F)(F)F` and stop.
### Response 6.82

### Prompt Specify pIC50 for `O=C(O)CCNC(=O)c1cccn2c(-c3ccc(NC(=O)Nc4ccccc4OC(F)(F)F)cc3)nnc12` and stop.
### Response 6.82

### Prompt Specify pIC50 for `CC[C@H](C)[C@H](NC(=O)c1cccn2c(-c3ccc(NC(=O)Nc4ccccc4OC(F)(F)F)cc3)nnc12)C(=O)O` and stop.
### Response 8.52

### Prompt Specify pIC50 for `CC(C)[C@H](NC(=O)c1nccn2c(-c3ccc(Nc4nc5ccc(Cl)cc5s4)cc3)nnc12)C(=O)O` and stop.
### Response 8.15

### Prompt Specify pIC50 for `CCC(=O)Nc1ccc(-c2nnc3c(C(=O)N[C@H](C(=O)O)C(C)C)cccn23)cc1` and stop.
### Response 4.37

### Prompt Specify pIC50 for `O=C(Nc1ccc(-c2nnc3c(C(=O)N[C@H](C(=O)O)C4CCCCC4)cccn23)cc1)Nc1ccccc1OC(F)(F)F` and stop.
### Response 6.74

### Prompt Specify pIC50 for `CC(C)[C@H](NC(=O)c1cccn2c(-c3ccc(Nc4nc5ccc(Cl)cc5s4)cc3)nnc12)C(=O)O` and stop.
### Response 8.15

Taken from patent US8324241B2.
